# measurementTarget: Casein kinase II subunit alpha' (Homo sapiens); further: in the data inactive means no Kd found up to 30 µM
# Sequence (P19784 whole entry): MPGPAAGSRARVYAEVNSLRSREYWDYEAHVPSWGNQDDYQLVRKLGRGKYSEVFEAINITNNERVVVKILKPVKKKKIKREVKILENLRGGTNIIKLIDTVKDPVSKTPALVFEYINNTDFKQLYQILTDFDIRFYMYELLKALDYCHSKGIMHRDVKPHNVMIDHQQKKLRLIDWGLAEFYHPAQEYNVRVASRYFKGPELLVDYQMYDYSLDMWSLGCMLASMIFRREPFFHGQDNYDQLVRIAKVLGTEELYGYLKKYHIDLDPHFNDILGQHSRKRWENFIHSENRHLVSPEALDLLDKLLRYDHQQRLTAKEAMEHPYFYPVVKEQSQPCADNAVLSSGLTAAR
Active and inactive are the calls of the source.
Respond with a class label; see active, inactive

# example entries with known answers
# compound, groupLabel
data = [
    ("O=C(Nc1cccc(Cl)c1)Nc1ncc(CCNc2ncnc3ccsc23)s1", "inactive"),
    ("CN1CC[C@@H](c2c(O)cc(O)c3c(=O)cc(-c4ccccc4Cl)oc23)[C@@H]1CO", "inactive"),
    ("Cn1cc(-c2ccc(F)c(C(F)(F)F)c2)nc1C1CCN(c2ncnc3[nH]ncc23)CC1", "inactive"),
    ("CC[C@@H]1C(=O)N(C)c2cnc(Nc3ccc(C(=O)N[C@H]4CC[C@H](N5CCN(CC6CC6)CC5)CC4)cc3OC)nc2N1C(C)C", "inactive"),
    ("CCS(=O)(=O)N1CC(CC#N)(n2cc(-c3ncnc4[nH]ccc34)cn2)C1", "inactive"),
]

Prompt line: Called result for "N[C@@H]1CCCN(c2c(/C=C3\SC(=O)NC3=O)cccc2-c2ccccc2)C1"
Response line: active

Prompt line: Called result for "CN1CCC(CNc2ccc3ncc(-c4cccc(OC(F)(F)F)c4)n3n2)CC1"
Response line: active

Prompt line: Called result for CN1N=C(N)c2cn([C@@H]3O[C@H](COP(=O)(O)O)[C@@H](O)[C@H]3O)c3ncnc1c23 [TRICIRIBINE PHOSPHATE]
Response line: inactive

Prompt line: Called result for "Cc1ccc(NC(=O)c2ccc(CN3CC[C@H](N(C)C)C3)c(C(F)(F)F)c2)cc1Nc1nccc(-c2cncnc2)n1"
Response line: inactive

Prompt line: Called result for Cc1cc2c(F)c(Oc3ncnn4cc(OC[C@@H](C)OC(=O)[C@H](C)N)c(C)c34)ccc2[nH]1 [BRIVANIB ALANINATE]
Response line: inactive

Prompt line: Called result for "CNC(=O)c1ccc(-c2cnc3ncc(Cc4ccc5ncccc5c4)n3n2)cc1F"
Response line: inactive

Prompt line: Called result for "Cc1cc(-c2cc(O)ccc2Cl)cc2nnc(Nc3ccc(OCCN4CCCC4)cc3)nc12"
Response line: inactive

Prompt line: Called result for "COc1cc(OC)c(/C=C/S(=O)(=O)Cc2ccc(OC)c(NCC(=O)O)c2)c(OC)c1"
Response line: inactive

Prompt line: Called result for O=C(Nc1ccc(-c2ccnc(Nc3ccc(N4CCOCC4)cc3)n2)cc1)C1CCCN1 (configuration not stated)
Response line: active

Prompt line: Called result for "CNC(=O)CN1CCC(Oc2cc3c(Nc4cccc(Cl)c4F)ncnc3cc2OC)CC1"
Response line: inactive

Prompt line: Called result for "C[C@@H](c1ccc2nccn2c1)n1nnc2ncc(-c3cnn(C)c3)nc21"
Response line: inactive

Prompt line: Called result for "CNC(=O)c1cc(Oc2ccc(NC(=O)Nc3ccc(Cl)c(C(F)(F)F)c3)c(F)c2)ccn1"
Response line: inactive

----------
Target or system Rho-associated protein kinase 1 (Homo sapiens, UniProt Q13464): recorded Kd listed per item. Further: in the data inactive means no Kd found up to 30 µM.
Calls of active or inactive are those of the source.

Here is how some molecules turned out for Kd.
# molecule, measurementTarget, Kd
rows = [
    ("CN1CCC(COc2cnc(-c3cccc(Cn4nc(-c5cccc(C#N)c5)ccc4=O)c3)nc2)CC1 [TEPOTINIB]", "Rho-associated protein kinase 1 (Homo sapiens, UniProt Q13464)", "> 30 µM (inactive)"),
    ("CCN1CCN(Cc2ccc(-c3cc4c(N[C@H](C)c5ccccc5)ncnc4[nH]3)cc2)CC1 [AEE-788]", "Rho-associated protein kinase 1 (Homo sapiens, UniProt Q13464)", "> 30 µM (inactive)"),
]

Count: 2. Required value per item: Kd.
1. O=C1NC(=O)/C(=C/c2ccc3nccc(-c4ccncc4)c3c2)S1 [GSK-1059615]
2. Cc1cc([C@@H](C)Nc2ccccc2C(=O)O)c2nc(N3CCOCC3)cc(=O)n2c1 [AZD-6482]

Response line:
> 30 µM (inactive)
> 30 µM (inactive)
